Value source: the kinase profiling compilation of Christmann-Franck et al. (2016)

molecular target: EPHB4 (human); test: radiometric filter-binding kinase assay, Kinase HotSpot; details: compound 0.5 µM; ATP 10 µM
So basically, if residual activity comes in under 90% it's True, and if it's 90% or more it's False.

{"columns": ["Compound", "Measurement Target", "Cat"],
 "data": [
  ["O=C1Nc2ccccc2/C1=C1/Nc2ccccc2/C1=N\\OCCC(O)CO (stereo unspecified)", "EPHB4 (human)", "True"],
  ["O=C1Nc2ccccc2/C1=C1\\Nc2ccccc2\\C1=N/O", "EPHB4 (human)", "True"],
  ["CCn1cnc2c(Nc3cccc(Cl)c3)nc(N[C@@H]3CCCC[C@@H]3N)nc21", "EPHB4 (human)", "True"]
]}

Here is another compound to look at.
In plain terms, does `Cn1nc2c3c(cccc31)C(=O)c1ccccc1-2` come in under 90% for residual activity? False

---

biological target: UniProt P35626; assay: radiometric filter-binding kinase assay, Kinase HotSpot; conditions: compound 0.5 µM; ATP 10 µM
Sequence (P35626 whole entry, looked up): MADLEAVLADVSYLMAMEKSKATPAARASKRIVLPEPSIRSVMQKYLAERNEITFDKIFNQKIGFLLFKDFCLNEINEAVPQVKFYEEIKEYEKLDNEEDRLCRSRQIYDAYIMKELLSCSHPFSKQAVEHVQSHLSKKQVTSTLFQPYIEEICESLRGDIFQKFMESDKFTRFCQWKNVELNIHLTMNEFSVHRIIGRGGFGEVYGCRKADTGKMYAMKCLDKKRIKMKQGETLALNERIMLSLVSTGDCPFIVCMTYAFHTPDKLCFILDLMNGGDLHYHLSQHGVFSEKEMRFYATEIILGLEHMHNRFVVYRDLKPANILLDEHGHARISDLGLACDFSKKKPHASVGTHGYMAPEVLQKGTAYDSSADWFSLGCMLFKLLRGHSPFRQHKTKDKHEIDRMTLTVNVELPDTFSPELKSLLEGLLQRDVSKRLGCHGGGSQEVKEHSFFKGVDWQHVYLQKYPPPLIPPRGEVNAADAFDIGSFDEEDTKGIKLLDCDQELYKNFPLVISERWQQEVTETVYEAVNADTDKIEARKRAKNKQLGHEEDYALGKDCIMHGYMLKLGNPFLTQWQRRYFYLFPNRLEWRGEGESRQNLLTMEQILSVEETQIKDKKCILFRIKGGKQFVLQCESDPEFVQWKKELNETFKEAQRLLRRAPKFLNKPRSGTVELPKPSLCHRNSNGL
Readout Label: residual activity (%)
The answer is to be given in %; state only the numeric part.

// below: answered molecules
{"columns": ["Molecule", "Readout Label", "Value Measured"],
 "data": [
  ["CCn1cnc2c(Nc3cccc(Cl)c3)nc(N[C@@H]3CCCC[C@@H]3N)nc21", "residual activity", 89.2],
  ["CCN(CC)CCCCN1c2ccccc2Oc2ccc(Cl)cc21", "residual activity", 87.5],
  ["CN([C@@H](Cc1ccc(OS(=O)(=O)c2cccc3cnccc23)cc1)C(=O)N1CCN(c2ccccc2)CC1)S(=O)(=O)c1cccc2cnccc12", "residual activity", 113],
  ["O=C1Nc2ccccc2/C1=C1/Nc2ccccc2/C1=N\\OCCC(O)CO (centres undefined)", "residual activity", 100],
  ["O=C(CCCc1ccc(-c2ccccc2F)cc1)Nc1ccc(O)cc1", "residual activity", 100],
  ["CN(C)C[C@H]1CCn2c(c(C3=C(c4cn(C)c5ccccc45)C(=O)NC3=O)c3ccccc32)C1", "residual activity", 102],
  ["CC(C)c1nn(-c2c(Cl)cccc2Cl)c2nc(Cc3ccc(OCCO)cc3)nc(O)c12", "residual activity", 87.9],
  ["O=C1NC(=O)/C(=C\\c2ccc3nccnc3c2)S1", "residual activity", 111],
  ["O=C1Nc2ccccc2/C1=C1\\Nc2ccccc2\\C1=N/O", "residual activity", 108],
  ["Cn1sc(=O)n(Cc2ccccc2)c1=O", "residual activity", 99.6]
]}

What is its residual activity for UniProt P35626? Entry: `O=C1NC(=O)C(c2c[nH]c3ccccc23)=C1c1c[nH]c2ccccc12` 87

What is its residual activity for UniProt P35626? Entry: `O=C1NC(=O)C(c2cn(CCCO)c3ncccc23)=C1c1cnccn1` 99.9

What is its residual activity for UniProt P35626? Entry: `CC(C)[C@H](CO)Nc1nc(Nc2cc(N)cc(Cl)c2)c2ncn(C(C)C)c2n1` 97.1

What is its residual activity for UniProt P35626? Entry: `Cn1nc2c3c(cccc31)C(=O)c1ccccc1-2` 93.6

---

Entries and their residual activity
target: SYK (human) (UniProt P43405); assay: radiometric filter-binding kinase assay, Kinase HotSpot; details: compound 0.5 µM; ATP 10 µM
The answer is to be given in %; state only the numeric part.

{"columns": ["Compound", "Unit", "Value Measured"],
 "data": [
  ["COc1cc2ncc(-c3ccccc3)nc2cc1OC", "%", 92.5],
  ["COc1cc2ncnc(N3CCN(C(=O)Nc4ccc(Oc5ccccc5)cc4)CC3)c2cc1OC", "%", 93.2],
  ["Oc1ccc(Nc2nc(-c3ccc(Cl)cc3)cs2)cc1", "%", 93.8],
  ["CN(C)C[C@H]1CCn2c(c(C3=C(c4cn(C)c5ccccc45)C(=O)NC3=O)c3ccccc32)C1", "%", 99.6],
  ["Cn1nc2c3c(cccc31)C(=O)c1ccccc1-2", "%", 94.8]
]}

Look up residual activity: `O=C1Cc2c([nH]c3ccc(Br)cc23)-c2ccccc2N1` 81.5

Look up residual activity: `CC(C)c1nn(-c2c(Cl)cccc2Cl)c2nc(Cc3ccc(OCCO)cc3)nc(O)c12` 98.6

---

molecular target: DYRK3 (human); assay: radiometric filter-binding kinase assay, Kinase HotSpot; conditions: compound 0.5 µM; ATP 10 µM
Entries and their residual activity
The answer is to be given in %; state only the numeric part.

// below: answered compounds
{"columns": ["Compound Smiles", "residual activity / %"],
 "data": [
  ["O=C(O)/C=C/c1cc(Br)c(Br)c(Br)c1Br", 100],
  ["CC(=O)O/N=C1\\C(=C2\\C(=O)Nc3cc(Br)ccc32)Nc2ccccc21", 91.3],
  ["COc1cc2ncnc(N3CCN(C(=O)Nc4ccc(Oc5ccccc5)cc4)CC3)c2cc1OC", 86.3],
  ["CN([C@@H](Cc1ccc(OS(=O)(=O)c2cccc3cnccc23)cc1)C(=O)N1CCN(c2ccccc2)CC1)S(=O)(=O)c1cccc2cnccc12", 112],
  ["Oc1ccc(Nc2nc(-c3ccc(Cl)cc3)cs2)cc1", 101]
]}

Look up residual activity: `CCN(CC)CCCCN1c2ccccc2Oc2ccc(Cl)cc21` 99

Look up residual activity: `O=C(CCCc1ccc(-c2ccccc2F)cc1)Nc1ccc(O)cc1` 94.5

Look up residual activity: `Cc1nc2cc3nc(-c4cccs4)cnc3cc2n1C` 111

Look up residual activity: `COc1ccc(CNC(=O)Nc2ncc([N+](=O)[O-])s2)cc1` 105

Look up residual activity: `O=C(Nc1cccc(Nc2cc(Nc3cccc(C(F)(F)F)c3)ncn2)c1)C1CC1` 101

---

target: NEK9 (human) (UniProt Q8TD19); experiment: radiometric filter-binding kinase assay, Kinase HotSpot; settings: compound 0.5 µM; ATP 10 µM
Sequence (Q8TD19 whole entry, looked up): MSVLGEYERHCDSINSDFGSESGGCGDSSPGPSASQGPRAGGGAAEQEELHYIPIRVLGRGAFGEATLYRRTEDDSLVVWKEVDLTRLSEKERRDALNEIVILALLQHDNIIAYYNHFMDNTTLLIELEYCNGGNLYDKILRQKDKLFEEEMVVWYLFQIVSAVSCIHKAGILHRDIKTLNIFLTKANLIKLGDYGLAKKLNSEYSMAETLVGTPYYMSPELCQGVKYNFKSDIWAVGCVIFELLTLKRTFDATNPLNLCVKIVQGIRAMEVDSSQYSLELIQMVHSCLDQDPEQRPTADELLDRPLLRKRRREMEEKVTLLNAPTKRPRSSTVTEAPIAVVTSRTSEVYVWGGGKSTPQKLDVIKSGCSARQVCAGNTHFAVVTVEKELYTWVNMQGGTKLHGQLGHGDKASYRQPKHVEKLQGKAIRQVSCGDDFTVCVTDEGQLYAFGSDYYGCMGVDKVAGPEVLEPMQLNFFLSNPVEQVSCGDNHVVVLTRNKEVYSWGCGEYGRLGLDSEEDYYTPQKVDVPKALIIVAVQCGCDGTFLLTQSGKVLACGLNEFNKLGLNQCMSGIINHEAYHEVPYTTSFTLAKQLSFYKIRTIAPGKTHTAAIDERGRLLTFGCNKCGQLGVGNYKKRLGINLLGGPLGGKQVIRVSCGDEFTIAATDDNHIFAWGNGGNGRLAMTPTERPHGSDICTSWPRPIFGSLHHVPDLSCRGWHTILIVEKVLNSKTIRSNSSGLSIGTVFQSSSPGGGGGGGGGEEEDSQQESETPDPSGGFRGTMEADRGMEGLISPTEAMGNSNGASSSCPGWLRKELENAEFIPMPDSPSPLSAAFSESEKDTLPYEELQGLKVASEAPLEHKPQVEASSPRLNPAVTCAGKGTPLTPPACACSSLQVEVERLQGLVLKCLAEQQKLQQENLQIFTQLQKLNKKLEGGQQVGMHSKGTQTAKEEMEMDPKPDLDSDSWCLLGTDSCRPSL
Readout Label: residual activity (%)
The answer is to be given in %; state only the numeric part.

{"columns": ["Compound Smiles", "Unit", "Value Measured"],
 "data": [
  ["O=C1NC(=O)C(c2cn(CCCO)c3ncccc23)=C1c1cnccn1", "%", 93.4]
]}

Look up residual activity: `Cn1nc2c3c(cccc31)C(=O)c1ccccc1-2` 96.6

Look up residual activity: `Nc1nnc2[nH]c3ccccc3nc1-2` 98.5

Look up residual activity: `CC(=O)O/N=C1\C(=C2\C(=O)Nc3cc(Br)ccc32)Nc2ccccc21` 86.7

Look up residual activity: `COc1cc2ncnc(N3CCN(C(=O)Nc4ccc(Oc5ccccc5)cc4)CC3)c2cc1OC` 103

Look up residual activity: `O=C(O)/C=C/c1cc(Br)c(Br)c(Br)c1Br` 94.7

Look up residual activity: `O=C1Nc2ccccc2/C1=C1\Nc2ccccc2\C1=N/O` 95.4

Look up residual activity: `COc1ccc(CNC(=O)Nc2ncc([N+](=O)[O-])s2)cc1` 89.4

Look up residual activity: `Nc1nccc(-c2c(-c3ccc(F)cc3)ncn2C2CCNCC2)n1` 100

---

target: AKT1 (human) (UniProt P31749); assay: radiometric filter-binding kinase assay, Kinase HotSpot; conditions: compound 0.5 µM; ATP 10 µM
Sequence (P31749 whole entry, looked up): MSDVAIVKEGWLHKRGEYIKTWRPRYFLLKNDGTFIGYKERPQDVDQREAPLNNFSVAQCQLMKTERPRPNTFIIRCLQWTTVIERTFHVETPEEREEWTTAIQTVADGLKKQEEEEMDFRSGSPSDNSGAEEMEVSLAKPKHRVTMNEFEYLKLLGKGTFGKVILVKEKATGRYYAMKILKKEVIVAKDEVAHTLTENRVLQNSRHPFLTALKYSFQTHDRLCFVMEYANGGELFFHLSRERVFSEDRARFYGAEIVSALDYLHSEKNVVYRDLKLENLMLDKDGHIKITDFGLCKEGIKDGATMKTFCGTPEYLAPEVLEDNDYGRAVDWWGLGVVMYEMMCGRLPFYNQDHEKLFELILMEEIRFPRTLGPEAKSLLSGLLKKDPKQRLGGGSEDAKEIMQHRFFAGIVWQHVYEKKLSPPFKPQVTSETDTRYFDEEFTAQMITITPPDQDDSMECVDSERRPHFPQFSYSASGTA
Readout Label: residual activity (%)
The answer is to be given in %; state only the numeric part.

{"columns": ["Compound Smiles", "residual activity, %"],
 "data": [
  ["CN([C@@H](Cc1ccc(OS(=O)(=O)c2cccc3cnccc23)cc1)C(=O)N1CCN(c2ccccc2)CC1)S(=O)(=O)c1cccc2cnccc12", 102],
  ["Oc1ccc(Nc2nc(-c3ccc(Cl)cc3)cs2)cc1", 106],
  ["Cn1nc2c3c(cccc31)C(=O)c1ccccc1-2", 99.1],
  ["O=C1Nc2ccccc2/C1=C1\\Nc2ccccc2\\C1=N/O", 97.8],
  ["Nc1nnc2[nH]c3ccccc3nc1-2", 106],
  ["Nc1nccc(-c2c(-c3ccc(F)cc3)ncn2C2CCNCC2)n1", 99.9],
  ["O=C(CCCc1ccc(-c2ccccc2F)cc1)Nc1ccc(O)cc1", 97.7],
  ["COc1cc2ncnc(N3CCN(C(=O)Nc4ccc(Oc5ccccc5)cc4)CC3)c2cc1OC", 93.7]
]}

What is its residual activity for AKT1 (human) (UniProt P31749)? Entry: `COc1ccc(OC)c2c(=S)c3ccccc3[nH]c12` 89.7

What is its residual activity for AKT1 (human) (UniProt P31749)? Entry: `CCn1cnc2c(Nc3cccc(Cl)c3)nc(N[C@@H]3CCCC[C@@H]3N)nc21` 108

---

Entries and their residual activity
biological target: TAOK2 (human); experiment: radiometric filter-binding kinase assay, Kinase HotSpot; settings: compound 0.5 µM; ATP 10 µM
The answer is to be given in %; state only the numeric part.

{"columns": ["Compound Smiles", "Unit", "residual activity"],
 "data": [
  ["O=C(CCCc1ccc(-c2ccccc2F)cc1)Nc1ccc(O)cc1", "%", 98.4],
  ["COc1cc2ncc(-c3ccccc3)nc2cc1OC", "%", 95.9],
  ["O=C1NC(=O)C(c2cn(CCCO)c3ncccc23)=C1c1cnccn1", "%", 88.1],
  ["CN(C)C[C@H]1CCn2c(c(C3=C(c4cn(C)c5ccccc45)C(=O)NC3=O)c3ccccc32)C1", "%", 87.7],
  ["Nc1nnc2[nH]c3ccccc3nc1-2", "%", 103]
]}

Look up residual activity: `CC(C)c1nn(-c2c(Cl)cccc2Cl)c2nc(Cc3ccc(OCCO)cc3)nc(O)c12` 93.3

Look up residual activity: `O=C1NC(=O)/C(=C\c2ccc3nccnc3c2)S1` 89.9

Look up residual activity: `Cn1cnc2cc3c(Nc4cccc(Br)c4)ncnc3cc21` 103
